Collected viability values appear next to each entry.
protocol_summary: reversal of MRP1-mediated doxorubicin resistance, pilot screen, H69AR cells, doxorubicin co-treatment (AID 601)
assay_conditions: H69AR cells, CellTiter-Glo, 72 h; compound alone cytotoxicity; at 10 µM

compound: CCOc1ccc(NC(=O)C2CC(=O)N(CC)C(=Nc3ccc4c(c3)OCO4)S2)cc1 (stereo unspecified)
viability, %: 84
--
compound: Clc1ccc(Cl)c(-c2nn3c(COc4ccccc4)nnc3s2)c1
viability, %: 72.9
--
compound: CC(=O)Nc1ccc2nc(-c3cccnc3)[nH]c2c1
viability, %: 80.7
--
compound: O=C(NC1=NCCS1)c1nc(-c2ccccc2)n(-c2ccccc2)n1
viability, %: 101
--
compound: Cc1cc(C(F)(F)F)nc(SCC(=O)NC2=NC(=O)C(C)S2)n1 (stereo unspecified)
viability, %: 100
--
compound: Cc1nc2sc3c(c2c(=O)o1)CCC3
viability, %: 88.1
--
compound: Cc1cc(C)n(-c2nc3c(c(=O)[nH]c(=O)n3C)n2Cc2ccc(F)cc2)n1
viability, %: 96.5
--
compound: Cc1ccccc1C(=O)NC1CCN(Cc2nnnn2CCc2ccccc2)CC1
viability, %: 86.8
--
compound: O=C(CSc1n[nH]c(-c2ccco2)n1)Nc1sc2c(c1C(=O)Nc1ccccc1)CCCC2
viability, %: 65.9
--
compound: Cc1ccc(C(C)C)c(OCc2nnc(SCC(=O)Nc3ncc(C)s3)n2C)c1
viability, %: 41.1
--
compound: Cc1ccccc1NC(=O)CSc1nnc(Cc2cccn2C)n1-c1ccc(F)cc1
viability, %: 100
--
compound: Cn1nc(CC(=O)Nc2ccc(N3CCN(C(=O)OC(C)(C)C)CC3)cc2)c2ccccc2c1=O
viability, %: 1.72
--
compound: Cc1cc(C)cc(NC(=O)CN(C)S(=O)(=O)c2cnc[nH]2)c1
viability, %: 100
--
compound: CCCn1c(SCC(=O)Nc2cc(C)on2)nc2c1c(=O)n(C)c(=O)n2C
viability, %: 100
--
compound: COc1ccc(C)cc1-n1nnnc1SC/C(O)=C(\C#N)c1nc2ccccc2[nH]1
viability, %: 85.2
--
compound: Cc1cc(CN2CCN(CCC#N)CC2)c(O)c(C2(C)CCCCC2)c1
viability, %: 64.9
--
compound: O=C(NCN1CCCCC1)c1cccnc1
viability, %: 106
--
compound: Cc1occc1C(=O)Nc1ccc(S(=O)(=O)N2CCN(C)CC2)cc1
viability, %: 90.4
--
compound: c1ccc2c(-c3nc(-c4ccncc4)no3)cccc2c1
viability, %: 102
--
compound: CCOc1cc(C2/C(=C(/O)c3ccc(OC(C)C)cc3)C(=O)C(=O)N2CCCOC)ccc1O (stereo unspecified)
viability, %: 99.1
--
compound: CN(C)c1ccnc(NCc2ccccc2)c1C#N
viability, %: 85.8
--
compound: O=C(c1cnc2sccn2c1=O)N1CCc2ccccc2C1
viability, %: 104
--
compound: c1ccc(-c2cnc(CSc3ncnc4sccc34)o2)cc1
viability, %: 96.9
--
compound: CCN(C(=O)c1ccnc(C(C)(C)C)c1)c1ccccc1
viability, %: 79.2
--
compound: CC(C)NCC(O)COc1cccc2[nH]ccc12 (stereo unspecified)
viability, %: 99.2
--
compound: C[N+](C)(C)CCCCCCCCCC[N+](C)(C)C
viability, %: 104
--
compound: CCOC(=O)CNC(=O)CSc1nnnn1-c1cc(C)ccc1C
viability, %: 110
--
compound: Cn1c(C(=O)NCCC2=CCCCC2)cc2c(=O)n3ccccc3nc21
viability, %: 96.1
--
compound: COc1ccccc1NC1=NC(c2ccc(Cl)cc2)N=C(N)N1 (stereo unspecified)
viability, %: 10
--
compound: Cc1c(CNCc2cccs2)c(C(=O)O)c(C)n1Cc1ccccc1
viability, %: 99.8
--
compound: CN(C)C(=O)C12CCC(C)(c3nc4ccccc4nc31)C2(C)C (stereo unspecified)
viability, %: 88.8
--
compound: O=C(c1cc(-c2cccs2)on1)N1CCc2ccccc2C1
viability, %: 104
--
compound: O=C(Nc1cccnc1)Nc1ccc(F)c(Cl)c1
viability, %: 105
--
compound: CC1CC(C)CN(CCCNC(=O)c2ccc3c(c2)NC(=O)C(N2CCCCC2)S3)C1 (stereo unspecified)
viability, %: 87.8
--
compound: CCOc1ccc2nc(NC(=O)C(NS(=O)(=O)c3cccs3)C(C)C)sc2c1 (stereo unspecified)
viability, %: 86.7
--
compound: Cc1ccccc1OCCCN1C(=O)C(=O)c2cccc(C)c21
viability, %: 33
--
compound: O=C(c1ncn[nH]1)N1CCN(c2nc(-c3ccccc3)cs2)CC1
viability, %: 94.5
--
compound: O=C(CSc1nnc(C2COc3ccccc3O2)o1)N1CCCc2ccccc21 (stereo unspecified)
viability, %: 92.3
--
compound: Cc1ccccc1Nc1nc(N)nc(CSCc2c(C)noc2C)n1
viability, %: 96.4
--
compound: CCCCN(Cc1cc2cc(OC)ccc2[nH]c1=O)C(=O)c1ccccn1
viability, %: 102
--
compound: Clc1ccc(C2=Nn3c(nnc3-c3n[nH]c4c3CCC4)SC2)cc1Cl
viability, %: 9
--
compound: COc1ccc(NC(=O)CSc2ccccn2)cc1OC
viability, %: 95.1
--
compound: COC(=O)c1cc2ccsc2n1CC(=O)N(C)c1ccccc1
viability, %: 84.2
--
compound: COC1CCCCC1NS(=O)(=O)c1ccccc1 (stereo unspecified)
viability, %: 97.7
--
compound: COc1cccc(-c2nnc3sc(C4CCCCC4)nn23)c1
viability, %: 63.4
--
compound: COc1cc(C(=O)Nc2nc(-c3cccs3)cs2)cc(OC)c1OC
viability, %: 22.9

* * *

protocol_summary: HUVEC growth inhibition – cell-based, human, primary screen (AID 575);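 also: 100% = median of untreated cell wells with 0.1% DMSO on each plate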
assay_conditions: HUVEC proliferation, CellTiter-Glo luminescence, 72 h; at 10 µM; stronger effect = lower value
Form field: viability (one value per entry).
metric_name: viability (%)

compound: CC1(C)CC(=O)C(C=NC(CCC(N)=O)C(=O)O)=C(O)C1 (stereo unspecified)
endpoint_unit: %
reported: 96.5
--
compound: COc1cc2c(cc1OC)C(c1ccccc1O)N(C1CC(=O)N(c3ccccc3)C1=O)CC2 (stereo unspecified)
endpoint_unit: %
reported: 97.7
--
compound: CC(C(N)=O)N1C(=O)C2C3C=CC(C3)C2C1=O (stereo unspecified)
endpoint_unit: %
reported: 85.1
--
compound: CCCC(CCC)C(=O)NCCN1CCOCC1
endpoint_unit: %
reported: 85
--
compound: CCOC(=O)Cc1csc(NC(=O)c2cccc(OC)c2)n1
endpoint_unit: %
reported: 104
--
compound: CC1(C)CC(=O)C(C=Nc2ccncc2)=C(O)C1
endpoint_unit: %
reported: 92.2

* * *

test_target: Receptor tyrosine-protein kinase erbB-2 (Homo sapiens) (UniProt P04626)
Sequence (P04626 whole entry, looked up): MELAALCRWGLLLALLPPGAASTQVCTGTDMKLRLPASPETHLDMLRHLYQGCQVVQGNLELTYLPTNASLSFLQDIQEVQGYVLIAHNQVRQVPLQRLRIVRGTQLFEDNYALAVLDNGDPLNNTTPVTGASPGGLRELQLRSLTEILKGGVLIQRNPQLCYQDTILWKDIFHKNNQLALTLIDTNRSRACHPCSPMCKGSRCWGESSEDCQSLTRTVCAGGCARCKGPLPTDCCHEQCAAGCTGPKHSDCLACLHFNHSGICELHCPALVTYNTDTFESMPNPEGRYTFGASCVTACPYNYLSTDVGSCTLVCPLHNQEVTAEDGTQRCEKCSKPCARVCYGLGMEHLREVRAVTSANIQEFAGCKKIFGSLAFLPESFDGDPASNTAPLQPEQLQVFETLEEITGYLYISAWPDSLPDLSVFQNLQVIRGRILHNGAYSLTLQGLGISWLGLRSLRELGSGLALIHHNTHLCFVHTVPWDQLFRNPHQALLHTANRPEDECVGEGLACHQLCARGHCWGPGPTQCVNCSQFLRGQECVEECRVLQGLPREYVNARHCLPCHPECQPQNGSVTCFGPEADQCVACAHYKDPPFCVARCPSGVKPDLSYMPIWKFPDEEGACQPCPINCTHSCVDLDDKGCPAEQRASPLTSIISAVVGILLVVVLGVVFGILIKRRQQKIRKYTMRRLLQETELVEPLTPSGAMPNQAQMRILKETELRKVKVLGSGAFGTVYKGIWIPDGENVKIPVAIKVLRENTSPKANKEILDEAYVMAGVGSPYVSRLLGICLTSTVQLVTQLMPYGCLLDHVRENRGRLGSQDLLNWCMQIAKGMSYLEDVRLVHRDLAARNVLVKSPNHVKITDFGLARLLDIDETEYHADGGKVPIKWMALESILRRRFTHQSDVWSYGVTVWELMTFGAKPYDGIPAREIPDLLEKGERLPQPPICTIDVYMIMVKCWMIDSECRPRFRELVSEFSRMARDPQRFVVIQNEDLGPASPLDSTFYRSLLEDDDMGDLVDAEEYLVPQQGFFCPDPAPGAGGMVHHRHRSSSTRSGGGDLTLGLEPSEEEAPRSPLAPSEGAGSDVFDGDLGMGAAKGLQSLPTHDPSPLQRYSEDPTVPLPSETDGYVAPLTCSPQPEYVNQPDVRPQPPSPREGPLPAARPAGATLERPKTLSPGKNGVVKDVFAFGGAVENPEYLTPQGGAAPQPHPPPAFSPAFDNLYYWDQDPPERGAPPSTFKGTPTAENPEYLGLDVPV
protocol_summary: reducers of endogenous Her2 protein level, primary screen, SKBR3 breast tumor cells, AlphaScreen, ATP viability (AID 461);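 also: lower value means less Her2 protein in the cells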
assay_conditions: 18-24 h, at 10 µM, stronger effect = lower value
One threshold, 90%, splits the recorded Her2 level values: lower ones are satisfied, equal or higher ones are not satisfied.

compound: CC(=O)Nc1ccc(NS(=O)(=O)c2ccc(Cl)c(C(=O)O)c2)cc1
group: not satisfied
--
compound: NC(=O)c1oc2ccc(Cl)cc2c1NC(=O)CN1CCOCC1
group: satisfied
--
compound: Cc1cc(C(=O)Cn2cncn2)c(C)n1CCc1ccc(F)cc1
group: satisfied
--
compound: Cc1ccc(C)c2[nH]c(=O)c(CCNC(=O)c3ccc(Br)o3)cc12
group: satisfied
--
compound: O=C1NC(=O)C2(CCC(C(=O)O)C2)N1 (stereo not drawn)
group: satisfied
--
compound: CCOC(=O)c1ccc(N=Cc2nc(-c3ccccc3)oc2OC(C)=O)cc1
group: satisfied
--
compound: COc1ccc(Cn2c(=O)[nH]c3cc(C(=O)NCCCN4CCCC4)ccc3c2=O)cc1
group: not satisfied
--
compound: COc1cc(C(Nc2ccc3c(c2)OCO3)C(=O)NC2CCCCC2)cc(OC)c1OC (stereo not drawn)
group: satisfied
--
compound: O=C(C1CCCO1)N1CCN(C(c2ccccc2)c2ccccc2)CC1 (stereo not drawn)
group: not satisfied
--
compound: Cc1ccc(C)c(-c2nc3ccc(N)cc3[nH]2)c1
group: not satisfied
--
compound: CCC1CCc2c(sc3ncnc(N4CCOCC4)c23)C1 (stereo not drawn)
group: satisfied
--
compound: COc1ccc(-c2noc(-c3ccccc3C(=O)Nc3cccnc3)n2)cc1
group: not satisfied
--
compound: COC(=O)c1ccccc1S(=O)(=O)N(Cc1cc2cc3c(cc2[nH]c1=O)OCO3)C1CCCCC1
group: not satisfied
--
compound: O=C1c2ccccc2C(Nc2ccc3c(c2)OCCO3)N1Cc1ccco1 (stereo not drawn)
group: not satisfied
--
compound: CCOC(=O)C1=C(N)c2ccccc2CC1C(C)C (stereo not drawn)
group: satisfied
--
compound: O=C(COC(=O)Cc1cccc(C(F)(F)F)c1)NCC1CCCO1 (stereo not drawn)
group: not satisfied
--
compound: CC(C)(C)NC(=O)COC(=O)c1snc(C(=O)NC2CCCCC2)c1N
group: satisfied
--
compound: COc1ccc(C2C=C(c3ccccc3)Nc3ncnn32)cc1 (stereo not drawn)
group: not satisfied
--
compound: COc1cc(CN2CCSCC2)cc(OC)c1OC
group: not satisfied
